Some compounds, each annotated with its measured DC50.
# Study target: IKZF2 (Homo sapiens, UniProt Q96SW2+Q9UKS7)
# Sequence (Q9UKS7 1-500 isoform Q9UKS7-2): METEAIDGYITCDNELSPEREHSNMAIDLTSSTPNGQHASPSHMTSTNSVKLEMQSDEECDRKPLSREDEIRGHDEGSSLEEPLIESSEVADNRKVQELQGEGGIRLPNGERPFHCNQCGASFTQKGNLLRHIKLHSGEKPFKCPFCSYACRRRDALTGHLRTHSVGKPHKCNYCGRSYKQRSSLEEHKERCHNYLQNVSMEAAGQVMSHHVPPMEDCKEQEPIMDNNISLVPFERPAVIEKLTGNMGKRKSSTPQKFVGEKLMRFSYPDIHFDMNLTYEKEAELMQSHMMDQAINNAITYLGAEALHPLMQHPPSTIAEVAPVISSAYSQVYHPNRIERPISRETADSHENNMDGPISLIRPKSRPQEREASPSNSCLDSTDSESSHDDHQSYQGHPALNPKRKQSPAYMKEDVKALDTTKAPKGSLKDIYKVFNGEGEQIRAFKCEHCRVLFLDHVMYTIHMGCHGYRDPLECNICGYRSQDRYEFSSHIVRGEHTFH
# Sequence (Q96SW2 whole entry): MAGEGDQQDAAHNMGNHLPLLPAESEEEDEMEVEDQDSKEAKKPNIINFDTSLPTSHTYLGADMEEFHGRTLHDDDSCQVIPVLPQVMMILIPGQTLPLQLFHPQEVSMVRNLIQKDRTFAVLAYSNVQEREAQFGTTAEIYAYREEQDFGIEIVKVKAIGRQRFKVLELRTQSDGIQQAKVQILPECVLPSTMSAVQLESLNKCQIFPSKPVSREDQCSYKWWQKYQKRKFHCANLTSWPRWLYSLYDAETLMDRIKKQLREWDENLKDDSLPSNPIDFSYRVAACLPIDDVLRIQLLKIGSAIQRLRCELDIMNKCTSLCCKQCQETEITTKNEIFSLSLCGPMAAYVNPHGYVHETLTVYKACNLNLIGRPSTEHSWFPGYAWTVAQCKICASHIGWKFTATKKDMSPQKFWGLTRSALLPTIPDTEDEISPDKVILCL
# Sequence (Q16531 whole entry partner): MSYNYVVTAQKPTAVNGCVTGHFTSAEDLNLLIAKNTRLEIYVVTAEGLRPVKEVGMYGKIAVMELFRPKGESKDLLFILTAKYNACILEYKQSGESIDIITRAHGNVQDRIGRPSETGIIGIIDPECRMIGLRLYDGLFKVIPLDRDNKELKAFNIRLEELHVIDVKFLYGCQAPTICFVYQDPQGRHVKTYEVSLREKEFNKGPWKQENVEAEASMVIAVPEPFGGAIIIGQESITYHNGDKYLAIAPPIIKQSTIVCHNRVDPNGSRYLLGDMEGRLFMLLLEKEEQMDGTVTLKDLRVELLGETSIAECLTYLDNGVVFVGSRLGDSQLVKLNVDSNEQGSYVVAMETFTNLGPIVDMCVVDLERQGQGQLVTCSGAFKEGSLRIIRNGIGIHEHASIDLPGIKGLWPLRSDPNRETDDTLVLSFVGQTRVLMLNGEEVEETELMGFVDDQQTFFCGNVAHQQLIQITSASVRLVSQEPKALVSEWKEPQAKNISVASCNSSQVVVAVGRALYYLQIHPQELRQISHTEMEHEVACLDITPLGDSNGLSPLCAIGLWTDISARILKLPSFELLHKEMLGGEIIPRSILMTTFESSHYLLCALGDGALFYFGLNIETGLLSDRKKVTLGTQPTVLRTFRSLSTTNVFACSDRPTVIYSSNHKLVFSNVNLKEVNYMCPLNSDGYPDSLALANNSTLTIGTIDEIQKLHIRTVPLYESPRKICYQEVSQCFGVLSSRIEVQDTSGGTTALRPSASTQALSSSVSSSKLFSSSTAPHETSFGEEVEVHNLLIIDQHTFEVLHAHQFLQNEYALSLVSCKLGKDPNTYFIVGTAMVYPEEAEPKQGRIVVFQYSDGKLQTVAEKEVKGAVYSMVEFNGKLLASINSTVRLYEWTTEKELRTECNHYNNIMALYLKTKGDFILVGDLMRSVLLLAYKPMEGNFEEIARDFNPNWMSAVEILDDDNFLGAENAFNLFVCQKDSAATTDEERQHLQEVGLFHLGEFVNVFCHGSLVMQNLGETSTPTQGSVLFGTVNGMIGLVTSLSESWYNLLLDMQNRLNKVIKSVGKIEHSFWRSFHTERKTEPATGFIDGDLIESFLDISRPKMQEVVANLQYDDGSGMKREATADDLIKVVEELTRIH
# Assay method text: HEK293 HiBiT in vitro degradation of IKZF2
# Assay type: cell-based
# Set-up: expressed in transfected cells
# Measurement context: HEK293 HiBiT, 18-24 hr incubation, normalized to DMSO control; read-out: IKZF2 EC50
Give just the numeric value; nM need not be written.

Previously resolved entries follow.
O=C1CCC(N2Cc3c(ccc(C[C@H]4OCCC[C@@H]4NC4CCN(CC(F)F)CC4)c3F)C2=O)C(=O)N1 (stereo partly shown) [Example 309]
16
CC1(C)CC(N[C@H]2CCCC[C@@H]2Cc2ccc3c(c2)CN(C2CCC(=O)NC2=O)C3=O)CC(C)(C)O1 (stereo partly shown) [Example 208]
2
CC(C)(C)CCN(CCC(C)(C)C)[C@H]1CCCC[C@@H]1Cc1ccc2c(c1F)CN(C1CCC(=O)NC1=O)C2=O (stereo partly shown) [Example 90]
69
COC1CCC(N[C@H]2CCCC[C@@H]2Cc2ccc3c(c2)CN(C2CCC(=O)NC2=O)C3=O)CC1 (single isomer, unassigned) [Example 278]
4
O=C1CCC(N2Cc3cc(C[C@H]4CCCC[C@@H]4NC4CCC4)ccc3C2=O)C(=O)N1 (stereo partly shown) [Example 48]
24

QUERY: # query: DC50 of entry CC1CCC(N[C@H]2CCCC[C@@H]2Cc2ccc3c(c2)CN(C2CCC(=O)NC2=O)C3=O)CC1 (single isomer, unassigned) [Example 279]
RESULT: 3

QUERY: # query: DC50 of entry [2H]C1(N[C@H]2CCCC[C@@H]2Cc2ccc3c(c2)CN(C2CCC(=O)NC2=O)C3=O)CCC(F)(F)CC1 (stereo partly shown) [Example 119]
RESULT: 2

QUERY: # query: DC50 of entry [2H]C1(N[C@H]2CCCC[C@@H]2Cc2ccc3c(c2F)CN(C2CCC(=O)NC2=O)C3=O)CCC2(CC2)CC1 (stereo partly shown) [Example 210]
RESULT: 1

QUERY: # query: DC50 of entry Cn1ncc2c1CCC(N[C@H]1CCCC[C@@H]1Cc1ccc3c(c1)CN(C1CCC(=O)NC1=O)C3=O)C2 (stereo partly shown) [Example 377]
RESULT: 5

---

# Study target: IKZF2 (Homo sapiens, UniProt Q96SW2+Q9UKS7)
# Assay method text: HEK293 HiBiT in vitro degradation of IKZF2
# Type: cell-based
# Parameters: expressed in transfected cells
# Measurement context: HEK293, HEK293 HiBiT; maximum degradation at the highest concentration tested
Some compounds, each annotated with its measured Dmax.
Give just the numeric value; % need not be written.

Previously resolved entries follow.
O=C1CCC(N2Cc3cc(C[C@H]4CCCC[C@@H]4NCc4cncc(F)c4)ccc3C2=O)C(=O)N1 (stereo partly shown)
80
O=C1CCC(N2Cc3cc(C[C@H]4CCCC[C@@H]4NC4CCC5(CC4)CC5)ccc3C2=O)C(=O)N1 (stereo partly shown)
97
O=C1CCC(N2Cc3cc(C[C@H]4CCCC[C@@H]4NCc4ccc(F)cn4)ccc3C2=O)C(=O)N1 (stereo partly shown)
66

Moving on to another compound below.
QUERY: Look up Dmax with IKZF2 (Homo sapiens, UniProt Q96SW2+Q9UKS7) for this compound: CCC(C)N[C@H]1CCCC[C@@H]1Cc1ccc2c(c1F)CN(C1CCC(=O)NC1=O)C2=O (single isomer, unassigned) [Example 294]
RESULT: 97

---

# Study target: IKZF1 (Homo sapiens, UniProt Q13422+Q96SW2)
# Construct: expressed in transfected cells
# Sequence (Q13422 whole entry): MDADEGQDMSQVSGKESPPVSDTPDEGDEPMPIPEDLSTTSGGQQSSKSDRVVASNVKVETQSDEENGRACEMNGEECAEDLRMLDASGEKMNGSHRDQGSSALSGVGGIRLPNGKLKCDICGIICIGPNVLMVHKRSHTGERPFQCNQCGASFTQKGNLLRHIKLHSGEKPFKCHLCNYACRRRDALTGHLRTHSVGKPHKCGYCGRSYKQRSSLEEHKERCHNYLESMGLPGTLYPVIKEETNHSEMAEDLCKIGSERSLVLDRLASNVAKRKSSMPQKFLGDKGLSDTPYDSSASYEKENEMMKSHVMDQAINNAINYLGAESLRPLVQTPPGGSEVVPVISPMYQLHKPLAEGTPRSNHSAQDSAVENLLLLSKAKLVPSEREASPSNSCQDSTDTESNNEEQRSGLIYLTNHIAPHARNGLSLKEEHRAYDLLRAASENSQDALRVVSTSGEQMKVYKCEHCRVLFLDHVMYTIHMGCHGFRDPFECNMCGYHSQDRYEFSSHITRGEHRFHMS
# Sequence (Q96SW2 whole entry): as the sequence (Q96SW2 whole entry) above
# Sequence (Q16531 whole entry partner): as the sequence (Q16531 whole entry partner) above
# Assay method text: HEK293 HiBiT in vitro degradation of IKZF1
# Assay type: cell-based
# Measurement context: HEK293 HiBiT, 18-24 hr incubation, normalized to DMSO control; read-out: IKZF1 EC50
Some molecules, each annotated with its measured DC50.

Previously resolved entries follow.
COC(C)(C)CCN[C@H]1CCCC[C@@H]1Cc1ccc2c(c1)CN(C1CCC(=O)NC1=O)C2=O (some centres unmarked)
> 1000 nM
CC(N[C@H]1CCCC[C@@H]1Cc1ccc2c(c1)CN(C1CCC(=O)NC1=O)C2=O)C(C)(C)F (single isomer, unassigned) [Example 226]
17 nM
O=C1CCC(N2Cc3cc(C[C@H]4CCCC[C@@H]4NCc4ccc(F)cn4)ccc3C2=O)C(=O)N1 (some centres unmarked)
> 1000 nM
CC(N[C@H]1CCCC[C@@H]1Cc1ccc2c(c1)CN(C1CCC(=O)NC1=O)C2=O)C1(C#N)CC1 (single isomer, unassigned) [Example 256]
> 1000 nM
CC(N[C@H]1CCCC[C@@H]1Cc1ccc2c(c1)CN(C1CCC(=O)NC1=O)C2=O)C1CCCCC1 (some centres unmarked)
> 1000 nM

QUERY: # query: DC50 of entry O=C1CCC(N2Cc3cc(C[C@H]4CCCC[C@@H]4NCC4CCOC4)ccc3C2=O)C(=O)N1 (some centres unmarked)
RESULT: > 1000 nM

QUERY: # query: DC50 of entry O=C1CCC(N2Cc3c(ccc(C[C@H]4CCCC[C@@H]4NCC4CC(F)(F)C4)c3F)C2=O)C(=O)N1 (some centres unmarked)
RESULT: 28 nM

QUERY: # query: DC50 of entry O=C1CCC(N2Cc3cc(C[C@H]4OCCC[C@@H]4NC4CCCCC4)ccc3C2=O)C(=O)N1 (some centres unmarked) [Example 95]
RESULT: > 10000 nM

QUERY: # query: DC50 of entry CO[C@@H]1CCC[C@H](Cc2ccc3c(c2)CN(C2CCC(=O)NC2=O)C3=O)[C@H]1NC1CCC(F)(F)CC1 (some centres unmarked)
RESULT: > 1000 nM

QUERY: # query: DC50 of entry O=C1CCC(N2Cc3cc(C[C@H]4CCCC[C@@H]4NC4CCC5(CC4)CC5(F)F)ccc3C2=O)C(=O)N1 (single isomer, unassigned) [Example 272]
RESULT: 40 nM

---

# Study target: IKZF2 (Homo sapiens, UniProt Q96SW2+Q9UKS7)
# Assay method text: HEK293 HiBiT in vitro degradation of IKZF2
# Type: cell-based
# Design: expressed in transfected cells
# Measurement context: HEK293 HiBiT, 18-24 hr incubation, normalized to DMSO control; read-out: IKZF2 EC50
Property: log10(DC50) (log10 of the value in nM)
The common logarithm of DC50 in nM is what is listed.

CC1(C)CCC(N[C@H]2CCCC[C@@H]2Cc2ccc3c(c2)CN(C2CCC(=O)NC2=O)C3=O)CC1 (stereo partly shown)
0.48
CCC(C)N[C@H]1CCCC[C@@H]1Cc1ccc2c(c1)CN(C1CCC(=O)NC1=O)C2=O (single isomer, unassigned) [Example 300]
0.60
O=C1CCC(N2Cc3cc(C[C@H]4CCCC[C@@H]4NCc4ccccc4)c(F)cc3C2=O)C(=O)N1 (stereo partly shown)
1.76
O=C1CCC(N2Cc3cc(C[C@H]4CCCC[C@@H]4NCc4ccc(F)cc4F)ccc3C2=O)C(=O)N1 (stereo partly shown)
1.48
O=C1CCC(N2Cc3c(ccc(C[C@H]4CCCC[C@@H]4NC4CCOC4)c3F)C2=O)C(=O)N1 (stereo partly shown) [Example 117]
0.30

QUERY: # query: log10(DC50) of entry CC(N[C@H]1CCCC[C@@H]1Cc1ccc2c(c1)CN(C1CCC(=O)NC1=O)C2=O)C1(C)CCC1 (stereo partly shown) [Example 207]
RESULT: 0.30

QUERY: # query: log10(DC50) of entry O=C1CCC(N2Cc3cc(C[C@H]4CCCC[C@@H]4NCC4CC4)ccc3C2=O)C(=O)N1 (stereo partly shown)
RESULT: 1.67

---

Some compounds, each annotated with its measured DC50.
# Study target: IKZF1 (Homo sapiens, UniProt Q13422+Q96SW2)
# Construct: expressed in transfected cells
# Assay method text: HEK293 HiBiT in vitro degradation of IKZF1
# Type: cell-based
# Measurement context: HEK293 HiBiT, 18-24 hr incubation, normalized to DMSO control; read-out: IKZF1 EC50
Give just the numeric value; nM need not be written.

Previously resolved entries follow.
CC1(C)CC(N[C@H]2CCCC[C@@H]2Cc2ccc3c(c2)CN(C2CCC(=O)NC2=O)C3=O)CC(C)(C)O1 (stereo partly drawn) [Example 208]
76
CC(C)OC1CCC(N[C@H]2CCCC[C@@H]2Cc2ccc3c(c2)CN(C2CCC(=O)NC2=O)C3=O)CC1 (single isomer, unassigned) [Example 167]
77

Moving on to another compound below.
QUERY: # query: DC50 of entry O=C1CCC(N2Cc3cc(C[C@H]4CCCC[C@@H]4NC4CC5CCC(C4)O5)ccc3C2=O)C(=O)N1 (stereo partly drawn) [Example 112]
RESULT: 56

---

# Study target: IKZF2 (Homo sapiens, UniProt Q96SW2+Q9UKS7)
# Assay method text: HEK293 HiBiT in vitro degradation of IKZF2
# Format: cell-based
# Set-up: expressed in transfected cells
# Measurement context: HEK293 HiBiT, 18-24 hr incubation, normalized to DMSO control; read-out: IKZF2 EC50
Some molecules, each annotated with its measured DC50.
Give just the numeric value; nM need not be written.

O=C1CCC(N2Cc3c(ccc(C[C@H]4CCCC[C@@H]4N(Cc4ccccc4)Cc4ccccc4)c3F)C2=O)C(=O)N1 (stereo partly shown)
353
O=C1CCC(N2Cc3cc(C[C@H]4CCCC[C@@H]4NC4CCCC[C@@H]4F)ccc3C2=O)C(=O)N1 (stereo partly shown) [Example 106]
10

QUERY: # query: DC50 of entry O=C1CCC(N2Cc3cc(C[C@H]4CCCC[C@@H]4NC4COC4)ccc3C2=O)C(=O)N1 (stereo partly shown)
RESULT: 35

QUERY: # query: DC50 of entry O=C1CCC(N2Cc3cc(C[C@H]4CCCC[C@@H]4NC4CCc5cn[nH]c5C4)ccc3C2=O)C(=O)N1 (single isomer, unassigned) [Example 359]
RESULT: 9

QUERY: # query: DC50 of entry O=C1CC[C@@H](N2Cc3cc(C[C@H]4CCCC[C@@H]4NC4CCC(F)(F)CC4)ccc3C2=O)C(=O)N1 (single isomer, unassigned)
RESULT: 2

QUERY: # query: DC50 of entry CC1(C)CCCC(N[C@H]2CCCC[C@@H]2Cc2ccc3c(c2)CN(C2CCC(=O)NC2=O)C3=O)C1 (single isomer, unassigned) [Example 275]
RESULT: 4

QUERY: # query: DC50 of entry CC(CC1CC1)N[C@H]1CCCC[C@@H]1Cc1ccc2c(c1)CN(C1CCC(=O)NC1=O)C2=O (stereo partly shown) [Example 204]
RESULT: 4
